# Assay Remarks: NCI Yeast Anticancer Drug Screen. Data for the sgs1 mgt1 strain (AID 161);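 also: 0% = growth of cultures given vehicle only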
# Condition Context: S. cerevisiae sgs1 mgt1 strain, at 50.0 µM (retest, dose inferred, filed as 5.0), hits give high values
# Procedure: Growth inhibition of yeast strains with defined genetic alterations is measured as a screen for potential anti-cancer activity. Selected strains with alterations in DNA damage repair or cell cycle control were exposed to compounds and growth inhibition was measured relative to vehicle treated controls. The strain used in this assay is sgs1 mgt1
About 79,000 compounds went through this panel and 15% of them were active in at least one assay; those are over-represented in the sample as a whole.
Parameter: growth inhibition (%)

In [3]: df
Out[3]:
                                    compound  reported
 0                       NCc1c(O)ccc2ccccc12        74
 1            N#CC(=C1C=CC(=NO)C=C1)c1ccccc1        99
 2           OCCN(CCO)c1ccc2c(c1)Cc1ccccc1-2        71
 3  Cc1ccc2c(ccc(/C=C/c3ccc(O)c4ncccc34)[n+]2C)c1        98
 4                      NNC(=S)Nc1cccc(Cl)c1        97
 5                           CCn1ncc(N=O)c1N        61
 6      O=c1[nH]cc(/C=N\Nc2ccccc2)c(=O)[nH]1        67
 7  CC(=O)[C@]1(O)Cc2c(O)c3c(c(O)c2[C@@H](OC2CC(N)C(O)C(C)O2)C1)C(=O)c1c(OCc2ccccc2)cccc1C3=O (some centres undefined)        46
 8           CC(C)c1[nH]nc(C(N)=O)c1N=NN(C)C        24
 9                    Nc1ccc2c(c1)sc1ccccc12        40
10             O=C1C=CC(=Nc2ccccc2)c2ccccc21        60
11              NC(=O)N1c2ccccc2C=Cc2ccccc21        29
12  CCN(CC)CC(O)c1cc(-c2ccc(Cl)cc2)nc2c(-c3ccccc3)cccc12 (centres undefined)        97
13                     N#CC(=S)Nc1cccc(Cl)c1        68
14                S=c1nc(Cl)cc2[nH]c(Cl)cn12         3
15   c1ccc(N2N=C3N(c4ccccc4)C2N3c2ccccc2)cc1        57
16  CC1CCC2(C(=O)O)CCC3(C)C(=CCC4C5(C)CC(O)C(O)C(C)(CO)C5C(O)CC43C)C2C1C (centres undefined)        70
17  CN(CC(=O)O)c1ccc(/C=C/c2ccnc3ccccc23)cc1        80
18  S=C(S)NCC1CCC(CNC(=S)S)CC1 (centres undefined)        61
19                 COc1ccc(N2CN(C)CSC2=S)cc1        59
20  CC(=O)C1(O)Cc2c(O)c3c(c(O)c2C(OC2CC(N)C(O)C(C)O2)C1)C(=O)c1ccccc1C3=O (centres undefined)        65
21  Cc1cc(C)c(N2C(=O)CC(Sc3ccccc3N)C2=O)c(C)c1 (centres undefined)        91
22  Cc1cc(O)c2c(c1O)C(=O)C13C(=C2O)C(=O)C2C(O)C1C1C(O)C3C(=O)C3=C(O)c4c(O)cc(C)c(O)c4C(=O)C321 (centres undefined)        86
23  CCCCCCCCCCCCCCCCCCNC(=S)/N=C\C1=C(O)c2ccccc2C1=O        18

Source listed as PubChem BioAssay (NCI).
